biological target: T1, mASH1L PHD domain (residue 2573–2624) (mouse, UniProt Q99MY8 2573-2624); test: ITC; MicroCal iTC200, 25°C, 1×PBS pH 7.2, 100 μM ZnCl2; 100 µM PHD or tandem Bromo-PHD in the cell, titrated with 3 mM peptide (31 injections of 1.2 μl); one set of sites model; details: both partners purified
T1 construct: 15N- or 13C-labelled for the NMR experiments; also called ASH1L PHD finger; source: E. coli BL21 (DE3), purified (MBPTrap, TEV cleavage, Superdex 75)
pKd: −log10 of the molar value. Where no end group is shown, it is not given here. Me2 = dimethylation (dimethyl-lysine)
measured.property: pKd

• RTKQTARK(Me2)STGGKAP (peptide, UniProt P68431 3-17, looked up, histone H3, residues 2-16; also called H3K9me2; source: synthetic peptide (MIMOYOPES, Wuxi, China)) [histone H3 (2–16) peptide with dimethylation on lysine 9] = < 3.30

// moving on: another record for pKd
Form field pKd, entry APATGGVK(Me2)KPHRYRP [histone H3 (29–43) peptide with dimethylation on lysine 36] : < 3.30
